# tested.target: 14-3-3σ (Homo sapiens, UniProt P31947)
# Sequence (P31947 whole entry): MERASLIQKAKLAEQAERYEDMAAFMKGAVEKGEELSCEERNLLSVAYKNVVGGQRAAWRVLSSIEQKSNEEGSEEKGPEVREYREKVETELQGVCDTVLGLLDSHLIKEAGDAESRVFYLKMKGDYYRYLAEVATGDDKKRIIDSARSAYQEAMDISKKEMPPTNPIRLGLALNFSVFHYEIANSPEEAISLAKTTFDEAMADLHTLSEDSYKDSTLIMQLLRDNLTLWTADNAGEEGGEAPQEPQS
# test: Intact mass spectrometry assay, apo (no peptide)
# Format: binding
# Parameters: full-length for mass spectrometry and fluorescence anisotropy assays; made in house; host or cells: E. coli Rosetta 2(DE3)pLysS, pPROEX HTb vector
# reported.conditions: 1 μM compound, 100 nM 14-3-3σ, 16 h
reported.endpoint: % bound, APO, 16h (%)

Completed entries (count: 2):
O=C(CCl)NCC1CCN(S(=O)(=O)C2CC3(C2)CC(F)(F)C3)CC1: 0
O=C(CCl)NCC1CCN(S(=O)(=O)c2ccccc2F)CC1: 2.4

A: O=C(CCl)NCC1CCN(S(=O)(=O)C2CCC3(CC2)CC3(F)F)CC1 (stereo not shown)
B: O=C(CCl)N1CC2(CCN(S(=O)(=O)c3ccc(Br)c(F)c3)CC2)C1
Q: Compare % bound, APO, 16h: is it lower for A or for B ? Identify your selection by its label.
Result: A
(A: 0.9%, B: 13.8%)

----------
# tested.target: 14-3-3σ (Homo sapiens)
# test: Intact mass spectrometry assay, apo (no peptide)
# Format: binding
# Parameters: full-length for mass spectrometry and fluorescence anisotropy assays; made in house; host or cells: E. coli Rosetta 2(DE3)pLysS, pPROEX HTb vector
# reported.conditions: 1 μM compound, 100 nM 14-3-3σ, 24 h
reported.endpoint: % bound, APO, 24h (%)

A: O=C(CCl)NCC1CCN(S(=O)(=O)c2cc(F)c(Br)c(F)c2)CC1
B: O=C(CCl)NCC1CCN(S(=O)(=O)C2CCC3(CC2)CC3(F)F)CC1 (stereo not drawn)
Q: Rank A against B by their % bound, APO, 24h values and give the higher one. Identify your selection by its label.
Result: A
(A: 4.7%, B: 0.9%)

----------
# tested.target: 14-3-3σ (Homo sapiens, UniProt P31947)
# test: Intact mass spectrometry assay, apo (no peptide)
# Format: binding
# Parameters: full-length for mass spectrometry and fluorescence anisotropy assays; made in house; host or cells: E. coli Rosetta 2(DE3)pLysS, pPROEX HTb vector
# reported.conditions: 1 μM compound, 100 nM 14-3-3σ, 1 h
# Experimental: In analogy to our previous work, two orthogonal assays were used for screening (Figure S2). […] Additionally, the compounds were tested in a fluorescence anisotropy (FA) assay in the presence of the 5-carboxyfluorescein-(FAM)-labeled C-RAF259 peptide. […] For FA experiments, the EC50 values from the overnight measurement were calculated and plotted as bar graphs showing the […] log EC50 value (pEC50). […]
reported.endpoint: % bound, APO, 1h (%)

O=C(CCl)NCC1CCN(S(=O)(=O)c2cc(F)c(Br)c(F)c2)CC1 [Compound 40]: 0
COc1ccc(S(=O)(=O)N2CCC(CNC(=O)CCl)CC2)cc1F [Compound 33]: 0
O=C(CCl)NCC1CCN(S(=O)(=O)c2ccc(OC(F)(F)F)cc2)CC1 [Compound 19]: 0

----------
# tested.target: 14-3-3σ/C-RAF259 (Homo sapiens, UniProt P31947)
# test: Fluorescence anisotropy (FA) compound titration
# Type: binding
# reported.conditions: 10 nM C-RAF259-FAM 10-mer, 5 μΜ 14-3-3σ, overnight; read-out: Compound titrations EC50 value C-RAF259
pEC50: −log10 of the molar value.
reported.endpoint: pEC50

Completed entries (count: 2):
O=C(CCl)NCC1CCN(S(=O)(=O)Cc2ccc(F)cc2)CC1: < 3.00
O=C(CCl)NCC1CCN(S(=O)(=O)c2cccc(C(F)(F)F)c2)CC1: < 3.82

Kindly consider the entry below.
Q: Recall and state the measured pEC50 for O=C(CCl)N1CC[C@]2(CCN(S(=O)(=O)c3ccc(Br)c(F)c3)C2)C1 .
Result: < 3.60
